- CONDITION DESCRIPTION: Crystal; DTA
MEASURED METRIC: Normal melting temperature (°C)

COMPOUND	UNIT	Normal melting temperature
COC(=O)c1ccc(Cl)cc1 [methyl 4-chlorobenzoate]	°C	41.98

(1) COC(=O)c1ccc(I)cc1 [methyl p-iodobenzoate]
(2) COC(=O)c1ccc(F)cc1 [methyl p-fluorobenzoate]
(3) COC(=O)c1ccc(Br)cc1 [methyl 4-bromobenzoate]
Write the entries in order, lowest recorded Normal melting temperature first. As an answer, provide the labels arranged in the order called for.
2, 3, 1

The values you see were collected from the NIST ThermoML archive (doi:10.1016/j.jct.2012.07.027).
